B1: CPEB3 Ribozyme (parent)
chain: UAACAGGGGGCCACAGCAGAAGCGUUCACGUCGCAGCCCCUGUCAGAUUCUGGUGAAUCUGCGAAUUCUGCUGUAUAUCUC

# Variants of: B1
# Experimental Protocol: self-cleavage, relative activity (ratio to wild type); higher = more cleavage; in vitro, sequencing
Recorded self-cleavage, one value per entry.

| Mutation Label | self-cleavage |
| --- | --- |
| A3G A64G | 0.92 |
| A35G G63A | 1.29 |
| U67C C79A | 0.49 |
| U26C A65C | 0.28 |
| G16U U74C | 0.58 |
| U54A A75C | 1.19 |
| A45U U58A | 0.12 |
| A20C U41C | 0.29 |
| U48A U60A | 0.31 |
| A13G A65G | 0.41 |
| A20C A77U | 0.35 |
| C44U U54A | 0.36 |
| A13G C17A | 0.38 |
| G8C G55A | 0.37 |
| C44U U78C | 0.35 |
| G24U C38U | 0.1 |
| A64C A77G | 0.17 |
| A13U U26A | 1.08 |
| G7C U51C | 0.28 |
| G30A G73U | 0.46 |
| C38A U49C | 0.16 |
| A47G U60C | 0.37 |
| C4A U69A | 0.68 |
| G9A G24C | 0.2 |
| G36A U66C | 0.33 |
| C39U C79U | 1.02 |
| U25C U48A | 0.31 |
| U49C U51A | 0.49 |
| A35G U58G | 1.09 |
| A18U A47U | 0.3 |
| A20G A75U | 0.71 |
| U1C A18U | 0.36 |
| G16C A45G | 0.42 |
| C40U A75G | 0.5 |
| A3G U51C | 0.94 |
| U43A U72G | 1.02 |
| U69C A77U | 0.77 |
| G22A U76C | 0.25 |
| A3G U43C | 0.49 |
| G33U A65U | 0.13 |
| U1A A35U | 0.49 |
| G46A U54C | 0.06 |
| G6U U31A | 0.17 |
| C37U U51C | 0.67 |
| C39A U78A | 0.43 |
| U1C G9A | 0.43 |
| U51A U66A | 0.51 |
| G10A U72G | 0.24 |
| G10A C32A | 0.06 |
| A3U U25A | 0.29 |
| U25C G52C | 0.58 |
| A15U C40A | 0.31 |
| C11G G55A | 0.14 |
| A3G A75C | 1.07 |
| G7C A56G | 0.23 |
| A3U U72G | 1.09 |
| C23A C40G | 0.23 |
| U43G A47U | 0.1 |
| G19C U67C | 0.21 |
| U48C U67A | 0.3 |
| G6C A45U | 0.32 |
| G52A U58A | 0.5 |
| U1A G63A | 0.89 |
| C39A U48A | 0.21 |
| G53C U80C | 0.96 |
| U43G A75G | 0.24 |
| U48C G52A | 0.87 |
| U43C A45G | 0.5 |
| U26A C39U | 0.56 |
| A2U A45U | 0.54 |
| C32A C59A | 0.15 |
| G10C U80C | 0.31 |
| A2G U69A | 0.33 |
| C39U A65G | 0.32 |
| A65G U69C | 0.34 |
| U26G A45U | 0.17 |
| C39U A57G | 0.27 |
| U25A C59U | 0.09 |
| A56G U58C | 0.38 |
| G30A U48G | 0.14 |
| A35U U43C | 0.35 |
| A64G U76C | 0.94 |
| A28G G61U | 0.5 |
| A28U A57G | 0.64 |
| A57G | 0.96 |
| C23G U67C | 0.12 |
| A65G U76G | 0.53 |
| G42A U54C | 0.57 |
| G46A U66C | 0.25 |
| C11A U41A | 0.33 |
| G6A G36A | 0.19 |
